The listing below reports GI50 for compounds tested on Breast cancer cell lines.
One number for each entry, in µM.

- O=C(c1ccccc1)c1cc(Cl)ccc1OCCCCN1CCN(CCCCOc2ccc(Cl)cc2C(=O)c2ccccc2)CC1 [Compound 8b]: 3.47
- O=C(CN1CCN(c2ccccn2)CC1)Nc1ccc(Cl)cc1C(=O)c1ccccc1Cl [Compound 6a]: 3.89

Required: GI50, one value per compound below.
1. O=C(CN1CCN(c2ncccn2)CC1)Nc1ccc(Cl)cc1C(=O)c1ccccc1Cl [Compound 6b]
2. CC(C)(C)c1cn2cccc(C(=O)N3CCN(CC(=O)Nc4ccc(Cl)cc4C(=O)c4ccccc4Cl)CC3)c2n1 [Compound 6e]

[6.76, 2.14]

Read off the recorded GI50 for O=C(CN1CCN(c2ncnc3ccccc23)CC1)Nc1ccc(Cl)cc1C(=O)c1ccccc1Cl [Compound 6d] 0.178
